# TGT: Rap guanine nucleotide exchange factor 4 (Homo sapiens)
# PROTOCOL_DETAILS: Confirmatory qHTS for antagonist of cAMP-regulated guanine nucleotide exchange factor 4 (EPAC2) (AID 1645885); also: nearly all actives have a fitted effect of over 25% in size; as to activity change, negative = inhibition: % is scaled to controls: 0 for no effect and ±100 for the full control effect
# EXPERIMENTAL_CONTEXT: EPAC2 Rap1B-BODIPY-GDP exchange fluorescence, biochemical; series mostly up to 114 µM
Inconclusive results are not listed. The source made the active and inactive calls. Calls follow the shape of the dose curve; as a rule, active = well fitted inhibition curve with a large enough effect; inconclusive = small, poorly fitted or top-dose-only effect; inactive = no such curve, though single readings can be large or run the other way.
OBSERVATION_TYPE: activity change, negative = inhibition

Examples with answers:
Cc1c(NS(=O)(=O)c2ccccc2)ccc([N+](=O)[O-])c1Cl ... inactive
CCOC(=O)c1cc(CC)sc1/N=C/c1c(O)[nH]c(=S)[nH]c1=O ... inactive
Nc1ccc(Cl)cc1C(=O)c1ccccc1Cl ... -22.9% [at 12.7 µM] (inactive)
Cc1ccc(C)c(Cn2c(C(=O)O)c(C=O)c3ccccc32)c1 ... 3.6% [at 12.7 µM] (inactive)
CCN(CC)C(=O)Cn1cc(C=C2C(=O)N(C)C(=O)N(C)C2=O)c2ccccc21 ... 3.22% [at 12.7 µM] (inactive)

Consider the record given below.
[ask] Name the reported activity change, negative = inhibition value associated with the molecule Cn1cccc1/C=C1\C(=O)NC(=O)N(Cc2ccco2)C1=O
[reply] -7.91% [at 12.7 µM] (inactive)

====

# Tested on: AA1029
# PROTOCOL_DETAILS: qHTS profiling for inhibitors of Plasmodium falciparum proliferation (AID 504749); also: nearly all actives have a fitted effect of over 60% in size
# EXPERIMENTAL_CONTEXT: P. falciparum in erythrocytes, SYBR Green DNA, 72 h; series mostly up to 28.7 µM
Records with an inconclusive call do not appear. The source made the active and inactive calls. Calls follow the shape of the dose curve; as a rule, active = well fitted inhibition curve with a large enough effect; inconclusive = small, poorly fitted or top-dose-only effect; inactive = flat fitted curve, though single readings scatter.
Your answer must be one of the following: TRUE (active), FALSE (inactive)

[ask] GET /call?item= C[C@@]12CC[C@H]3[C@@H](CC[C@@H]4C[C@H]5S[C@H]5C[C@]43C)[C@H]1CC[C@H]2O returns the recorded outcome of this test.
[reply] FALSE

[ask] Then CN(C)[C@@H]1C(=O)C(C(N)=O)=C(O)[C@]2(O)C(=O)C3=C(O)c4c(O)ccc(Cl)c4[C@](C)(O)[C@H]3C[C@@H]12 ?
[reply] FALSE

[ask] Then Oc1ccc2c3c1O[C@H]1[C@@H](O)CC[C@@]4(O)C(C2)N(CC2CCC2)CCC314 (some centres not stated) ?
[reply] FALSE

[ask] Then C[C@]12CC[C@H](O)C[C@H]1CCC1C2CC[C@]2(C)[C@@H](c3ccc(=O)oc3)C[C@H]3O[C@]132 (some centres not stated) ?
[reply] FALSE

[ask] Then C[C@H]1CN(C2CCC(C#N)(c3ccc(F)cc3)CC2)CC[C@@]1(C(=O)O)c1ccccc1 (some centres not stated) ?
[reply] FALSE

[ask] Then CC(=O)O[C@H]1CC[C@@]2(C)C(=CC[C@@H]3[C@H]2CC[C@]2(C)C(=O)CC[C@H]32)C1 ?
[reply] FALSE

[ask] Then CCC(C)C1O[C@]2(C=CC1C)CC1CC(C/C=C(\C)[C@H](OC3CC(OC)C(O[C@H]4CC(OC)[C@@H](O)C(C)O4)C(C)O3)[C@@H](C)/C=C/C=C3\COC4C(O)C(C)=C[C@H](C(=O)O1)[C@@]34O)O2 (some centres not stated) ?
[reply] TRUE

====

# Test system: CP260
# PROTOCOL_DETAILS: qHTS profiling for inhibitors of Plasmodium falciparum proliferation (AID 504749); also: nearly all actives have a fitted effect of over 60% in size; also: potency is read from the fitted curve at half-maximal effect
# EXPERIMENTAL_CONTEXT: P. falciparum in erythrocytes, SYBR Green DNA, 72 h; series mostly up to 28.7 µM
Inconclusive results are not listed. Active and inactive are the calls of the source. Calls come from the whole dose curve; as a rule, active = well fitted inhibition curve with a large enough effect; inconclusive = small, poorly fitted or top-dose-only effect; inactive = flat fitted curve, though single readings scatter.
OBSERVATION_TYPE: Potency

Examples with answers:
O=[As]O[As]=O (centres undefined) ... 6.31 µM (active)
C[C@@]12CC[C@H]3[C@@H](CC[C@@H]4C[C@H]5S[C@H]5C[C@]43C)[C@H]1CC[C@H]2O ... inactive
C[C@@H]1O[C@H](O[C@@H]2C=C3CC[C@H]4[C@@H](CC[C@]5(C)[C@@H](c6ccc(=O)oc6)CC[C@]45O)[C@@]3(C)CC2)[C@@H](O)[C@H](O)[C@@H]1O ... inactive
CNC(C)[C@@H](O)c1ccc(O)cc1 (some centres undefined) ... inactive
CCN[C@]1(c2cccs2)CCCCC1=O ... inactive
CC[C@@H]1[C@@H]2C[C@H]3[C@H]4N(C)c5ccccc5[C@@]45C[C@@H]([C@@H]2[C@@H]5O)N3[C@H]1O ... inactive
CC(C)N(CC[C@@](C(N)=O)(c1ccccc1)c1ccccn1)C(C)C ... inactive
CNC(C)[C@@H](O)c1ccccc1 (some centres undefined) ... inactive
[Hg+][c]1ccccc1 ... inactive
C[C@H](NC(C)(C)C)C(=O)c1cccc(Cl)c1 ... inactive

[ask] Name the reported Potency value associated with the compound CN[C@@H](C)[C@H]1CC[C@@H](N)[C@@H](O[C@@H]2[C@@H](O)[C@@H](O[C@H]3OC[C@@](C)(O)[C@@H](NC)[C@@H]3O)[C@H](N)C[C@@H]2N)O1 (tested in a mixture with another compound)
[reply] inactive

[ask] Then C=CC1CN2CCC1CC2C(OC(=O)OCC)c1ccnc2ccc(OC)cc12 (centres undefined) ?
[reply] 10 µM (active)

[ask] Then CN(C)C(=O)Oc1cc(OC(=O)N(C)C)cc([C@@H](O)CNC(C)(C)C)c1 ?
[reply] inactive

[ask] Then C[C@]12CC[C@H](O)C[C@H]1CCC1C2CC[C@]2(C)[C@@H](c3ccc(=O)oc3)C[C@H]3O[C@]132 (some centres undefined) ?
[reply] inactive

[ask] Then C[N+]1([O-])[C@@H]2CC(OC(=O)[C@@H](CO)c3ccccc3)C[C@@H]1[C@H]1O[C@H]12 (some centres undefined) ?
[reply] inactive

[ask] Then C[C@H]1CN(C2CCC(C#N)(c3ccc(F)cc3)CC2)CC[C@@]1(C(=O)O)c1ccccc1 (some centres undefined) ?
[reply] inactive
